So I've got a bunch of molecules here, and I need their IC50 values.
# Test system: A549
# Method description: Cytotoxicity against human A549 cells assessed as reduction in cell viability by Sulforhodamine B assay
# Assay type: functional, cell-based

Solved cases (2 shown):
Chem smiles: COC(=O)C1=CO[C@@H](O[C@H]2O[C@@H](CO[Si](c3ccccc3)(c3ccccc3)C(C)(C)C)[C@H](OC(C)=O)[C@@H](OC(C)=O)[C@@H]2OC(C)=O)[C@@H]2[C@@](C)(O)[C@@H](OC(=O)/C=C/c3ccccc3)C[C@]12O
IC50: > 50 µM

Chem smiles: COC(=O)C1=CO[C@@H](O[C@H]2O[C@@H](CO)[C@H](O)[C@@H](O)[C@@H]2O)[C@@H]2[C@@](C)(O)[C@@H](OC(=O)/C=C/c3ccccc3)C[C@]12O
IC50: > 50 µM

Now look at this one.
Task: Entry COC(=O)C1=CO[C@@H](O[C@H]2O[C@@H](CO[Si](C)(C)C(C)(C)C)[C@H](OC(C)=O)[C@@H](OC(C)=O)[C@@H]2OC(C)=O)[C@@H]2[C@@](C)(O)[C@@H](OC(=O)/C=C/c3ccccc3)C[C@]12O has what IC50?
Result: > 50 µM
